The measurements presented in this section are drawn from patent US20040209914A1.

- study.system: Recombinant human MMP-13 (Homo sapiens, UniProt P45452)
- Construct: made in house; host or cells: baculovirus / insect cells
- assay.text: biochemical
- details: fluorogenic MCA-peptide substrate, pH 7.5, room temperature; read-out: MMP-13 IC50
Overview of reported pIC50 across a group of molecules:
# reply with the number alone; pIC50 is -log10 of concentration in mol/L

For orientation, consider the following solved cases.
molecule="CCN1CCC(C(=O)NO)(S(=O)(=O)c2ccc(N3CCC(C(=O)c4ccc(OC)cc4)CC3)cc2)CC1 [Example 194]" endpoint_label=pIC50 val=8.04
molecule="CCN1CCC(C(=O)NO)(S(=O)(=O)c2ccc(N3CCC(C(=O)c4ccc(CCCC(C)C)cc4)CC3)cc2)CC1 [Example 236]" endpoint_label=pIC50 val=8.82
molecule="CC(=O)N1CCN(C(=O)C2CCN(c3ccc(S(=O)(=O)C4(C(=O)NO)CCOCC4)cc3)CC2)CC1 [Example 8]" endpoint_label=pIC50 val=7.30

Read off the recorded pIC50 for CC(C)Cc1ccc(C(=O)C2CCN(c3ccc(S(=O)(=O)C4(C(=O)NO)CCOCC4)cc3)CC2)cc1 [Example 377]
9.40

Answer with the recorded pIC50 for the molecule listed here: O=C(NO)C1(S(=O)(=O)c2ccc(N3CCC(c4ccc(F)cc4)CC3)cc2)CCN(CC2CC2)CC1 [Example 263]
8.82

Provide pIC50 value for the following molecule: C#CCN1CCC(C(=O)NO)(S(=O)(=O)c2ccc(N3CCC(C(=O)c4ccc(NC)cc4)CC3)cc2)CC1 [Example 173]
9.05
